Assay: Activity against thromboxane A2 receptor evaluated by aggregation of human platelets
Measured Attribute: pEC50
pEC50 field: float, defined as -log10 of concentration (mol/L).

stdin: // query pEC50 value for entry CCCCCC(O)/C=C/[C@@H]1[C@@H](C/C=C\CCCC(N)=O)[C@@H]2C[C@H]1OC(=O)O2 (some centres not stated)
stdout: 5.51

stdin: Consider the compound shown here: CCCCCC(O)/C=C/[C@@H]1[C@@H](C/C=C\CCCC(=O)O)[C@@H]2C[C@H]1OC(=O)O2 (some centres not stated) What is its recorded pEC50?
stdout: 7.62

Reference for the values: BindingDB's records for doi:10.1016/S0960-894X(01)80110-4
